- TEST_TARGET: Glutamate NMDA receptor; GRIN1/GRIN2B (Homo sapiens, UniProt Q05586+Q13224)
- Sequence (Q13224 whole entry, other chains not shown): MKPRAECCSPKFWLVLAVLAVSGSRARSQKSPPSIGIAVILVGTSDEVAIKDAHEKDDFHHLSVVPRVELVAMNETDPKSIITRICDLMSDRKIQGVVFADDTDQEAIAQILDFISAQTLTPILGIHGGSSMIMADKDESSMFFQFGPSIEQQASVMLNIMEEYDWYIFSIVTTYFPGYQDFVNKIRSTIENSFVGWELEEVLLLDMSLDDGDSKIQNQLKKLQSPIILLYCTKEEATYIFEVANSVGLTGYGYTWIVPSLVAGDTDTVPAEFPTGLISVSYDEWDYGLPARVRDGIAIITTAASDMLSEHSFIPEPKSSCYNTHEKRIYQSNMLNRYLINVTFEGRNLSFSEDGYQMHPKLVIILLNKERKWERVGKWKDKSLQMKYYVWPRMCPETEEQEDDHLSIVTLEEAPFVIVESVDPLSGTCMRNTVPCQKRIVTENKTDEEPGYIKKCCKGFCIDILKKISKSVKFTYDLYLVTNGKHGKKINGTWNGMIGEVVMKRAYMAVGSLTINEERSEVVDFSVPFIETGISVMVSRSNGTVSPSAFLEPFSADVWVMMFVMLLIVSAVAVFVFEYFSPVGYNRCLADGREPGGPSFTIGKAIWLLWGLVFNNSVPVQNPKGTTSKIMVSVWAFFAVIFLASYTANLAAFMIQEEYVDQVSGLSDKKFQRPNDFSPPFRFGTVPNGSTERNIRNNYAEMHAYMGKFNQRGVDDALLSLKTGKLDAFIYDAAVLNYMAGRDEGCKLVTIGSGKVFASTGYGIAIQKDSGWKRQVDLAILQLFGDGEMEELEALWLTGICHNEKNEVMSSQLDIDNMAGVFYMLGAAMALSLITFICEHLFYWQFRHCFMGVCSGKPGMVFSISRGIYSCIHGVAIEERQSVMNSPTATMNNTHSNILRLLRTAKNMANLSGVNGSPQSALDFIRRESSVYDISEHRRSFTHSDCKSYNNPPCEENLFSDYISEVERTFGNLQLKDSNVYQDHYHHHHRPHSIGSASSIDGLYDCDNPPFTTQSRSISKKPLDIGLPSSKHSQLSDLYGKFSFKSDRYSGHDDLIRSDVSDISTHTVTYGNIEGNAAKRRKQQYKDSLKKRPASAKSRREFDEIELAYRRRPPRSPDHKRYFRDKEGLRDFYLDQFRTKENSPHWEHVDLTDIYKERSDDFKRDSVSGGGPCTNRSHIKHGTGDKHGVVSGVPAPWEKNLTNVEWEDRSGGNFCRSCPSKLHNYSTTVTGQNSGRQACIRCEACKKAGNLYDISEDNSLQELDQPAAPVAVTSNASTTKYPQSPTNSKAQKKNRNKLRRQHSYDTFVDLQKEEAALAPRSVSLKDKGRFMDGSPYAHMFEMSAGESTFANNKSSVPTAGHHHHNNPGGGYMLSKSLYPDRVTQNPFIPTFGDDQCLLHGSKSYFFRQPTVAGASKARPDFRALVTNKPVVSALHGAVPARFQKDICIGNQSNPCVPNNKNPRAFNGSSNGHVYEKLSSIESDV
- METHOD_DESCRIPTION: Displacement of [3H]ifenprodil from human recombinant NR1-1a/NR2B receptor expressed in mouse L(tk-) cells after 120 mins by scintillation counting
OBSERVED_PROPERTY: Ki (nM)

Known results for compounds:
[[record]]
compound = "Oc1ccc2c(c1)CCN(CCCOc1ccccc1)CC2O (racemic)"
test_value = 20

[[record]]
compound = "OC1CN(C2CCC3(CC2)OCCO3)CCc2cc(OCc3ccccc3)ccc21 (racemic)"
test_value = 1120


1. OC1CN([C@H]2CC[C@H](c3ccccc3)CC2)CCc2cc(OCc3ccccc3)ccc21 (stereo not given in full)
2. Oc1ccc2c(c1)CCN([C@H]1CC[C@H](c3ccccc3)CC1)CC2O (mixture of isomers)
Data request: Which has the smaller recorded Ki, 1 or 2 ? Selection: enter the item's label.
Data returned: 2
(2: 9 nM, 1: 388 nM)
